test system: PSMA + PC-3 PiP and PSMA − PC-3 flu tumor xenografts; settings: 21 H post-injection
READOUT NAME: Biodistribution: Sm int. (% ID/g)

MOLECULE	TESTED TARGET	MEASUREMENT UNITS	RECORDED RESULT
O=C(O)CC[C@H](NC(=O)N[C@@H](CCCCNC(=O)c1ccc([131I])cc1)C(=O)O)C(=O)O [[^131I]YC-I-27]	PSMA + PC-3 PiP and PSMA − PC-3 flu tumor xenografts	% ID/g	0.33
O=C(O)CC[C@H](NC(=O)N[C@@H](CCC(=O)NCCc1ccc([131I])cc1)C(=O)O)C(=O)O [[^131I]HS-549]	PSMA + PC-3 PiP and PSMA − PC-3 flu tumor xenografts	% ID/g	0.37
N=C(N)NCc1ccc(C(=O)NCCCCC(NC(=O)CCCCCCC(=O)NCCCC[C@H](NC(=O)N[C@@H](CCC(=O)O)C(=O)O)C(=O)O)C(=O)O)cc1[131I] (stereo partly drawn) [[^131I] labeled PSMA-904]	PSMA + PC-3 PiP and PSMA − PC-3 flu tumor xenografts	% ID/g	0.87

* * *

system: PSMA + PC-3 PiP and PSMA − PC-3 flu tumor xenografts; settings: 1 H post-injection
The following compounds are listed with their measured Biodistribution: heart values.
READOUT NAME: Biodistribution: heart

COMPOUND	RECORDED RESULT
O=C(O)CC[C@H](NC(=O)NC(CCCCNC(=O)c1ccc([211At])cc1)C(=O)O)C(=O)O (stereo partly drawn) [[^211At]YC-I-27]	2.36 ± 0.48 % ID/g
N=C(N)NCc1ccc(C(=O)NCCCCC(NC(=O)CCCCCCC(=O)NCCCC[C@H](NC(=O)N[C@@H](CCC(=O)O)C(=O)O)C(=O)O)C(=O)O)cc1[211At] (stereo partly drawn) [[^211At] labeled PSMA-904]	0.84 ± 0.27 % ID/g
N=C(N)NCc1ccc(C(=O)NCCCCC(NC(=O)CCCCCCC(=O)NCCCC[C@H](NC(=O)N[C@@H](CCC(=O)O)C(=O)O)C(=O)O)C(=O)O)cc1[131I] (stereo partly drawn) [[^131I] labeled PSMA-904]	0.46 ± 0.18 % ID/g

* * *

Biodistribution: thyroid values, listed per item
system: PSMA + PC-3 PiP and PSMA − PC-3 flu tumor xenografts; settings: 2 H post-injection
READOUT NAME: Biodistribution: thyroid (% ID/g)

COMPOUND	READOUT NAME	RECORDED RESULT
O=C(O)CC[C@H](NC(=O)N[C@@H](CCC(=O)NCCc1ccc([211At])cc1)C(=O)O)C(=O)O [[^211At]HS-549]	Biodistribution: thyroid	4.11
O=C(O)CC[C@H](NC(=O)N[C@@H](CCC(=O)NCCc1ccc([131I])cc1)C(=O)O)C(=O)O [[^131I]HS-549]	Biodistribution: thyroid	0.69
N=C(N)NCc1ccc(C(=O)NCCCC[C@H](NC(=O)N[C@@H](CCC(=O)O)C(=O)O)C(=O)O)cc1[131I] [[^131I] labeled 7 (PSMA-620)]	Biodistribution: thyroid	0.77
N=C(N)NCc1ccc(C(=O)NCCCCC(NC(=O)CCCCCCC(=O)NCCCC[C@H](NC(=O)N[C@@H](CCC(=O)O)C(=O)O)C(=O)O)C(=O)O)cc1[131I] (stereo partly shown) [[^131I] labeled PSMA-904]	Biodistribution: thyroid	0.31
O=C(O)CC[C@H](NC(=O)NC(CCCCNC(=O)c1ccc([211At])cc1)C(=O)O)C(=O)O (stereo partly shown) [[^211At]YC-I-27]	Biodistribution: thyroid	3.56
N=C(N)NCc1ccc(C(=O)NCCCCC(NC(=O)CCCCCCC(=O)NCCCC[C@H](NC(=O)N[C@@H](CCC(=O)O)C(=O)O)C(=O)O)C(=O)O)cc1[211At] (stereo partly shown) [[^211At] labeled PSMA-904]	Biodistribution: thyroid	1.03
O=C(O)CC[C@H](NC(=O)N[C@@H](CCCCNC(=O)c1ccc([131I])cc1)C(=O)O)C(=O)O [[^131I]YC-I-27]	Biodistribution: thyroid	0.24
